assay: Pharmacokinetic analysis of ladostigil and metabolites in Alzheimer's disease patients; details: human, in vivo, 100 mg, AUC (M), Patient 1; maintenance analysis Week 4; after ladostigil tartrate 100 mg twice daily
Where a name gives a salt, the structure may show the parent alone.
Form field: AUC (one value per entry).

{"columns": ["compound", "AUC (ng·h/mL)"],
 "data": [
  ["CNC(=O)Oc1ccc2c(c1)[C@H](N)CC2 [R-MCAI, hydrochloride]", 62],
  ["C#CCN[C@@H]1CCc2ccc(OC(=O)N(CC)CO)cc21 [R-HCPAI]", 1660],
  ["C#CCN[C@@H]1CCc2ccc(OC(=O)NC)cc21 [R-MCPAI, hydrochloride]", 684]
]}

* * *

experiment: clinical; details: human, in vivo, 100 mg, Cmax (M), Patient 4; maintenance analysis Week 4; after ladostigil tartrate 100 mg twice daily
measurement-name: Cmax (M)

{"columns": ["compound-string", "measurement-name", "endpoint-unit", "recorded-number"],
 "data": [
  ["C#CCN[C@@H]1CCc2ccc(OC(=O)N(C)CC)cc21", "Cmax", "M", "3.9e-06"]
]}

* * *

# Cmax annotations
assay: Pharmacokinetic analysis of ladostigil and metabolites in Alzheimer's disease patients; conditions: human, in vivo, 100 mg, Cmax (M), Patient 6; maintenance analysis Week 4; after ladostigil tartrate 100 mg twice daily
Counter-ions that a name gives are not always drawn.

{"columns": ["molecule", "endpoint-unit", "Cmax"],
 "data": [
  ["C#CCN[C@@H]1CCc2ccc(OC(=O)NC)cc21 [R-MCPAI, hydrochloride]", "M", "1.3e-06"],
  ["CNC(=O)Oc1ccc2c(c1)[C@H](N)CC2 [R-MCAI, hydrochloride]", "M", "3e-07"],
  ["C#CCN[C@@H]1CCc2ccc(OC(=O)N(CC)CO)cc21", "M", "4e-06"]
]}

* * *

test: clinical; details: human, in vivo, 100 mg, Cmax (M), Patient 5; maintenance analysis Week 4; after ladostigil tartrate 100 mg twice daily
measurement-name: Cmax (M)

{"columns": ["compound", "measurement-name", "recorded-number"],
 "data": [
  ["C#CCN[C@@H]1CCc2ccc(OC(=O)N(C)CC)cc21 [ladostigil]", "Cmax", "1.4e-06"]
]}

* * *

experiment: clinical; details: human, in vivo, 100 mg, Cmax (T), Patient 3; termination analysis Week 9; after ladostigil tartrate 100 mg twice daily

{"columns": ["compound-string", "endpoint-unit", "Cmax"],
 "data": [
  ["C#CCN[C@@H]1CCc2ccc(OC(=O)N(C)CC)cc21", "µM", 3.9]
]}

* * *

assay: Pharmacokinetic analysis of ladostigil and metabolites in Alzheimer's disease patients; details: both, human, in vivo, 100 mg
Where a name gives a salt, the structure may show the parent alone.

{"columns": ["compound", "half-life, h"],
 "data": [
  ["C#CCN[C@@H]1CCc2ccc(OC(=O)N(CC)CO)cc21", 1.03],
  ["CNC(=O)Oc1ccc2c(c1)[C@H](N)CC2 [R-MCAI, hydrochloride]", 8.09],
  ["C#CCN[C@@H]1CCc2ccc(OC(=O)NC)cc21 [R-MCPAI, hydrochloride]", 1.39]
]}

* * *

test: clinical; conditions: human, in vivo, 100 mg, Cmax (M), Patient 2; maintenance analysis Week 4; after ladostigil tartrate 100 mg twice daily

{"columns": ["compound-string", "Cmax [M]"],
 "data": [
  ["C#CCN[C@@H]1CCc2ccc(OC(=O)N(C)CC)cc21", "1.2e-06"]
]}
